Assayed Target: panel of 203 kinases (Homo sapiens, UniProt O15146)
Construct: purchased DiscoverX (KINOMEscan)
Sequence (O15146 24-869): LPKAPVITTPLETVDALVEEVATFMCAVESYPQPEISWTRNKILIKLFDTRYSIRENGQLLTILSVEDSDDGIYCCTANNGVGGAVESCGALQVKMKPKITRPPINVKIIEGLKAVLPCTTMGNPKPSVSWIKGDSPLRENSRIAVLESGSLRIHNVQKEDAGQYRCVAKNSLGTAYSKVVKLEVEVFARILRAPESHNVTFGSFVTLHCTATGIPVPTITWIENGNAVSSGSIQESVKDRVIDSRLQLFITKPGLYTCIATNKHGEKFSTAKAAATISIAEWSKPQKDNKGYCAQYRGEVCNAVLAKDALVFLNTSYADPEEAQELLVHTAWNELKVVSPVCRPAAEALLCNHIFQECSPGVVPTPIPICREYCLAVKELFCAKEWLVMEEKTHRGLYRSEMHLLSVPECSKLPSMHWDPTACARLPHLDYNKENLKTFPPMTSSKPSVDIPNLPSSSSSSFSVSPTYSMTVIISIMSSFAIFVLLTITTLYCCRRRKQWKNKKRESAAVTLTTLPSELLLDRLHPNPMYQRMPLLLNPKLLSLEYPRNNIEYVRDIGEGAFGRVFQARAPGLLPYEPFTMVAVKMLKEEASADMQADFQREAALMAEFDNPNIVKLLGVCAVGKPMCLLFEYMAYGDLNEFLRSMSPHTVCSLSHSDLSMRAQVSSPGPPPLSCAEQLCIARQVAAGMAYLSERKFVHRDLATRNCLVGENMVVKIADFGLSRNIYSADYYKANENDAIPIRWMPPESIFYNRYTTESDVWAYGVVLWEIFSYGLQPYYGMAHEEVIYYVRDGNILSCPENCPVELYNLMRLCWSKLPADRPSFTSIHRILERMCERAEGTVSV
Protocol Description: KINOMEscan competitive binding, whole panel
Assay Context: 10 µM, n=1; kinase MUSK; read-out: Percent inhibition MUSK
For each entry below, report its inhibition at 10 µM value.
Form entry: enter the amount, then its unit.

Field request: inhibition at 10 µM | item: Fc1cccc(COc2ccc(Nc3ncnc4c3CN(CCN3CCOCC3)CC4)cc2Cl)c1
0%

Field request: inhibition at 10 µM | item: Clc1ccc(Nc2ncc(-c3ccccc3)s2)cc1
0%

Field request: inhibition at 10 µM | item: C[C@@H](Oc1cc(-c2cnc3ccccn23)sc1C(N)=O)c1ccccc1Cl
0%

Field request: inhibition at 10 µM | item: c1ccc(COc2cccc(-c3ccnc4[nH]ccc34)c2)cc1
0%

Field request: inhibition at 10 µM | item: Cc1ccc(O)cc1Nc1ccnc(Nc2cccc(C(N)=O)c2)n1
0%

Field request: inhibition at 10 µM | item: COc1ccc(Nc2nccc(-c3cnn4ncccc34)n2)cc1
74.8%

Field request: inhibition at 10 µM | item: CN1CCN(c2ccc(Nc3nccc(-c4cnn5ncccc45)n3)cc2C#N)CC1
98.8%

Field request: inhibition at 10 µM | item: COc1cc(Nc2nccc(-c3sc(N)nc3-c3cccc(NC(=O)c4c(F)cccc4F)c3)n2)cc(OC)c1OC
97.2%

Field request: inhibition at 10 µM | item: Cc1ccc(O)cc1N(C)c1ccnc(Nc2cccc(S(N)(=O)=O)c2)n1
0%

Field request: inhibition at 10 µM | item: Nc1ncc2c(-c3ccncc3)c[nH]c2n1
93.9%

---

Assayed Target: PAK4 (Homo sapiens)
Construct: purchased DiscoverX (KINOMEscan)
Sequence (O96013 whole entry): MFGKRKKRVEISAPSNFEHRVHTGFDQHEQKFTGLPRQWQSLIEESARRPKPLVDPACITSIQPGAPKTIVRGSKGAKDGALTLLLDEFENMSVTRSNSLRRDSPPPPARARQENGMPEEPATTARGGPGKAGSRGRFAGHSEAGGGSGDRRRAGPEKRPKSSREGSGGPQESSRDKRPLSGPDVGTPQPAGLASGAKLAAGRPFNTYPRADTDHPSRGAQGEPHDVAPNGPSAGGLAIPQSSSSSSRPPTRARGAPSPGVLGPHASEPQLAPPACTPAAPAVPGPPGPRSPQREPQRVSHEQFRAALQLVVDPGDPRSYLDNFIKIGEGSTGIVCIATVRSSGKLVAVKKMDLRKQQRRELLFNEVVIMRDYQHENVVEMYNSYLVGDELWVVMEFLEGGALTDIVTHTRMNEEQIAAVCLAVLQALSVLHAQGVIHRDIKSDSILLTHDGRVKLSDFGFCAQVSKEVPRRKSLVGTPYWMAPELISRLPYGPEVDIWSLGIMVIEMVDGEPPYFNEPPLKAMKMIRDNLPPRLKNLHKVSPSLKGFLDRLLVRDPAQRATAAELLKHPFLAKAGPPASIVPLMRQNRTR
Protocol Description: KINOMEscan competitive binding
Assay Context: n=1, read-out: Percent inhibition, PAK4
Quantity Kind: inhibition at 10 µM (%)
Expressed in %, but write only the number.

Field request: inhibition at 10 µM | item: COc1cc(Nc2nccc(-c3sc(N)nc3-c3cccc(NC(=O)c4c(F)cccc4F)c3)n2)cc(OC)c1OC
0

Field request: inhibition at 10 µM | item: Cc1ccc(O)cc1Nc1ccnc(Nc2cccc(C(N)=O)c2)n1
0

Field request: inhibition at 10 µM | item: Clc1ccc(Nc2ncc(-c3ccccc3)s2)cc1
0

Field request: inhibition at 10 µM | item: Nc1ncc2c(-c3ccncc3)c[nH]c2n1
0

Field request: inhibition at 10 µM | item: CN1CCN(c2ccc(Nc3nccc(-c4cnn5ncccc45)n3)cc2C#N)CC1
95.7

---

Assayed Target: panel of 203 kinases (Homo sapiens)
Construct: purchased DiscoverX (KINOMEscan)
Protocol Description: KINOMEscan competitive binding, whole panel
Assay Context: 10 µM, n=1; kinase NEK6; read-out: Percent inhibition NEK6
For each entry below, report its inhibition at 10 µM value.
Expressed in %, but write only the number.

Field request: inhibition at 10 µM | item: COc1cc(Nc2nccc(-c3sc(N)nc3-c3cccc(NC(=O)c4c(F)cccc4F)c3)n2)cc(OC)c1OC
97.4

Field request: inhibition at 10 µM | item: Clc1ccc(Nc2ncc(-c3ccccc3)s2)cc1
0

Field request: inhibition at 10 µM | item: C[C@@H](Oc1cc(-c2cnc3ccccn23)sc1C(N)=O)c1ccccc1Cl
0

Field request: inhibition at 10 µM | item: Nc1ncc2c(-c3ccncc3)c[nH]c2n1
0

Field request: inhibition at 10 µM | item: c1ccc(COc2cccc(-c3ccnc4[nH]ccc34)c2)cc1
0

Field request: inhibition at 10 µM | item: CN1CCN(c2ccc(Nc3nccc(-c4cnn5ncccc45)n3)cc2C#N)CC1
100

Field request: inhibition at 10 µM | item: Cc1ccc(O)cc1N(C)c1ccnc(Nc2cccc(S(N)(=O)=O)c2)n1
0

Field request: inhibition at 10 µM | item: Fc1cccc(COc2ccc(Nc3ncnc4c3CN(CCN3CCOCC3)CC4)cc2Cl)c1
0

Field request: inhibition at 10 µM | item: Cc1ccc(O)cc1Nc1ccnc(Nc2cccc(C(N)=O)c2)n1
0

Field request: inhibition at 10 µM | item: COc1ccc(Nc2nccc(-c3cnn4ncccc34)n2)cc1
100

---

Assayed Target: PLK4 (Homo sapiens, UniProt O00444)
Construct: purchased DiscoverX (KINOMEscan)
Sequence (O00444 1-970): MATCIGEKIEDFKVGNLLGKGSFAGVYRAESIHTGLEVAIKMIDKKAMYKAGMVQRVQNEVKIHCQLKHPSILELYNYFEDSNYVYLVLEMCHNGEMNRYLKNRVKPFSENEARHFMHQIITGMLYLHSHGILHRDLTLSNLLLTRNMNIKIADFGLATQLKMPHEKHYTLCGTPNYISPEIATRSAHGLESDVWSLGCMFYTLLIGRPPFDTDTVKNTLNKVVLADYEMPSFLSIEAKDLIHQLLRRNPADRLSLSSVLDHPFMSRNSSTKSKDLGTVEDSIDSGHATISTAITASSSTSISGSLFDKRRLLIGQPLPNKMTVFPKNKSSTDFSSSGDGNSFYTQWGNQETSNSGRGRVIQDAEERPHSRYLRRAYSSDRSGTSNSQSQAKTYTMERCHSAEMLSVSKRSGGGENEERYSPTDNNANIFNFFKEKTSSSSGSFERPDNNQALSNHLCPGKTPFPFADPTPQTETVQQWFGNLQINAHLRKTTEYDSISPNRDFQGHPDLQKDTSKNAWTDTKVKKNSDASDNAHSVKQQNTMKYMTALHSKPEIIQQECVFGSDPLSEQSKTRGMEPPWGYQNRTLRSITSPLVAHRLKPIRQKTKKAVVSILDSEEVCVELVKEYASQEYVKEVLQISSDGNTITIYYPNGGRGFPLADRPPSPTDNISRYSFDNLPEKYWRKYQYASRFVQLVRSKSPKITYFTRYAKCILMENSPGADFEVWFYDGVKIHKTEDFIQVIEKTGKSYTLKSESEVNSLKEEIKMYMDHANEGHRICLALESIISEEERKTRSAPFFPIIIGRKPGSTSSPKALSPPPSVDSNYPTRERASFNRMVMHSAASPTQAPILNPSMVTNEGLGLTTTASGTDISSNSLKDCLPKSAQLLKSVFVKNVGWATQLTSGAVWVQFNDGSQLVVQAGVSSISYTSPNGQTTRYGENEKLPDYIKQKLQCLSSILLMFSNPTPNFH
Protocol Description: KINOMEscan competitive binding
Assay Context: n=1, read-out: Percent inhibition, PLK4
Quantity Kind: inhibition at 10 µM (%)
Expressed in %, but write only the number.

Field request: inhibition at 10 µM | item: Nc1ncc2c(-c3ccncc3)c[nH]c2n1 [Compound 11]
84.4

Field request: inhibition at 10 µM | item: c1ccc(COc2cccc(-c3ccnc4[nH]ccc34)c2)cc1 [Compound 9]
0

Field request: inhibition at 10 µM | item: Fc1cccc(COc2ccc(Nc3ncnc4c3CN(CCN3CCOCC3)CC4)cc2Cl)c1 [Compound 6]
0

Field request: inhibition at 10 µM | item: C[C@@H](Oc1cc(-c2cnc3ccccn23)sc1C(N)=O)c1ccccc1Cl [Compound 8]
76.4

Field request: inhibition at 10 µM | item: Cc1ccc(O)cc1N(C)c1ccnc(Nc2cccc(S(N)(=O)=O)c2)n1 [Compound 4]
99.4
